Target: T1, Human IL2Rγ extracellular domain expressed with a C-terminal myc-myc-hexahistidine tag (human)
T1 construct: also called hIL-2Rg-MMH; hIL-2RG-MMH
T1 chain: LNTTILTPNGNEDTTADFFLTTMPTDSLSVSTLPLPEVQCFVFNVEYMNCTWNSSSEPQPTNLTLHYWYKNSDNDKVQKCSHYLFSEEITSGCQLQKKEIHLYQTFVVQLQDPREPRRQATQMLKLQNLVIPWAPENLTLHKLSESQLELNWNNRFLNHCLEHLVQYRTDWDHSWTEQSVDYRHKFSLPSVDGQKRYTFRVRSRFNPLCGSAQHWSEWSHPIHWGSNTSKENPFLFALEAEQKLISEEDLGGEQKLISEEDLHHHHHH
Test: SPR, captured mAb, 25C, dissociation pH 7.4
Protocol: The dissociation rate constant (kd) for binding of IL-2Rγ reagents to purified anti-IL2Rγ monoclonal antibodies was determined using a real-time surface plasmon resonance based Biacore 4000 biosensor platform. […] Dissociation rate constants (kd) in two running buffers were determined by fitting the real-time binding sensorgrams to a 1:1 binding model using Scrubber 2.0c curve-fitting software. […]
readoutKind: t1/2 (h)
One number for each entry, in h.

| binder | unitName | t1/2 |
| --- | --- | --- |
| H4H13541P (antibody, human IgG4 S228P, kappa, V domains shown, anti-IL2Rgamma mAb expressed with human IgG4 Fc) VH: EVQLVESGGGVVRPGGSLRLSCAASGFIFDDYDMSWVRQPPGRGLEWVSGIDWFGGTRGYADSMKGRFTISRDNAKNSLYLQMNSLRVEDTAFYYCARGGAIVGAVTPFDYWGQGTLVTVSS VL: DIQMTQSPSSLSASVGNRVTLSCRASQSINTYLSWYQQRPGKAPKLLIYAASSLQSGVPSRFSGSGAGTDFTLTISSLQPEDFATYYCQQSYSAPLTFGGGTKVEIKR | h | 1.17 |

For each of the binders below, note its t1/2.
1. H4H13538P (antibody, human IgG4 S228P, kappa, V domains shown, anti-IL2Rgamma mAb expressed with human IgG4 Fc) VH: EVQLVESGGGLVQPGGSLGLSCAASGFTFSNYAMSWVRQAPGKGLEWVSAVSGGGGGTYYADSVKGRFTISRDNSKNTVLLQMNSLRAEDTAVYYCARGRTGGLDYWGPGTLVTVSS VL: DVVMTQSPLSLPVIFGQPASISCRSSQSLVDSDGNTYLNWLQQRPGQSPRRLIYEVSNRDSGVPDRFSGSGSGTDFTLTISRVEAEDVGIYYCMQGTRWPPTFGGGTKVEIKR
2. H4H12874P (antibody, human IgG4 S228P, kappa, V domains shown, anti-IL2Rgamma mAb expressed with human IgG4 Fc) VH: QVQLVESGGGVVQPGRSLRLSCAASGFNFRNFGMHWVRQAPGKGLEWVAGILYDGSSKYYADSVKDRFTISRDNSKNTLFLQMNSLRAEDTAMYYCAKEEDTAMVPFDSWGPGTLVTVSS VL: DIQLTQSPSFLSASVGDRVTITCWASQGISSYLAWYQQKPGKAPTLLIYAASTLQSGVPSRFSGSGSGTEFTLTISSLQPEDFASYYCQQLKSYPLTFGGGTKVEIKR
3. H4H12889P (antibody, human IgG4 S228P, kappa, V domains shown, anti-IL2Rgamma mAb expressed with human IgG4 Fc; also called REGN7257) VH: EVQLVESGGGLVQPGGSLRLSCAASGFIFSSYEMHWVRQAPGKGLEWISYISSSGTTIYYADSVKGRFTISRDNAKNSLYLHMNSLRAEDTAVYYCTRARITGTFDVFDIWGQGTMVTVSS VL: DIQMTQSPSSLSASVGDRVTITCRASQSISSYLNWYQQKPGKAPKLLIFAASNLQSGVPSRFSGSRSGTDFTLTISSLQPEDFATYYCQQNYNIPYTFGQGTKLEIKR
4. H4H12890P (antibody, human IgG4 S228P, kappa, V domains shown, anti-IL2Rgamma mAb expressed with human IgG4 Fc) VH: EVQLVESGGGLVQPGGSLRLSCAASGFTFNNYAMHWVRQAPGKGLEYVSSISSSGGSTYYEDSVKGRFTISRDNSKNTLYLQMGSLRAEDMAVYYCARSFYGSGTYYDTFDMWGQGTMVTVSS VL: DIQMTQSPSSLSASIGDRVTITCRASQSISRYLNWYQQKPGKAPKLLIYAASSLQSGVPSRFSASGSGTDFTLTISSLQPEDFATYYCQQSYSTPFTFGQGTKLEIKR
5. H4H12899P (antibody, human IgG4 S228P, kappa, V domains shown, anti-IL2Rgamma mAb expressed with human IgG4 Fc) VH: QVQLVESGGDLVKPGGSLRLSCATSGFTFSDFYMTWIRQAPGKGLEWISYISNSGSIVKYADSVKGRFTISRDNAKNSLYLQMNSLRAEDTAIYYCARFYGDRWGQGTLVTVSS VL: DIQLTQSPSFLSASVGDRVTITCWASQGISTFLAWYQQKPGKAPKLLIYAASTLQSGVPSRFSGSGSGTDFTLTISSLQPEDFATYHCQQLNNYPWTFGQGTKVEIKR

Output:
[1.38, 1.18, 1.4, 1, 1.1]
